assay: yeast display, Sf9 membrane polyspecificity reagent, FACS + sequencing; frameworks hold sequencing errors

Residues	polyreactivity (PSR sort gate)
QVQLVESGGGLVQAGGSLRLSCAASGRTFLVYARGWYRQAPGKERELVATIRASTGSTYADSVKGRFTISRDNAKNTVYLQMNSLKPEDTAVYYCAAQPRYRHQTYNYWGQGTQVTVSS	high polyreactivity
QVQLVESGGGLVQAGGSLRLSCAASGFIFQRYAMGWYRQAPGKERELVAAISWSGGITYYADSVKGRFTISRDNAKNTVYLQMHSLKPEDTAVYYCAAGLAVGDYYWGQGTQVTVSS	high polyreactivity
QVQLVESGGGLVQAGGSLRLSCAASGFTFSYYAMGWYRQATGKERELVAAITSGGSTDYADSVKGRFTISRDNAKNTVYLQMNSLKPEDTAVYYCAVTARGGYQGKGTRRIYGYWGHGTQVTVSS	high polyreactivity
QVQLVESGGGLVQAGGSLRLSCAASGRTFELNAMGWYRQAPGKERELVAAISWSGGSTYYADSVKGRFTISRDNAKNTVYLQMNSLKPEDTAVYYCAAQYQQGPFVKYYYWGQGTQVTVSS	high polyreactivity
QDQLEESGGGLVQAGGSLRLSSAASGGTLYLYDMGWYRQAPGKERELVAAISYNGGSTYADSVKGRFTISRDNAKNTFYLQMNSLNPEDSAVYYCAADRPPRGLGGYWGQGTLVTVSS	low polyreactivity
QVQLVESGGGLVQAGGSLRLSCAASGGTFWWYTMGWYRQAPGKERELVATITRGGSTNYADSVKGRFTISRDNAKNTVYLQMNSLKPEDTAVYYCAKRYRPYYSTYDYWGQGTQVTVSS	high polyreactivity
QVQLVESGGGLVQAGGSLRLSCAASGSTFAPYAMGWYRQAPGKERELVASISWRGGRTYYADSVKGRFTISRDNAKNTVYLQMNSLKPEDTAVYYCATSRYRVDRWGPPYRYDYWGQGTQVTVSS	high polyreactivity
QVQLVESGGGLVQAGGSLRLSCAASGSTFWSNAMGWYRQAPGKERELVATINSGDGTNYADSVKGRFTISRDNAKNTVYLQMNSLKPEDTAVYYCAAEKYYPWGWYTYDYWGQGTQVTVSS	high polyreactivity
QVQLVESGAGLVQAGGSLRISCAASGFIFNEYAMGWYRQAPGKERELVAAISSGGSTYYADSVKGRFTISRDNAKNTVYLLINSLKPEDTAVYYCNALRRSQPWKYDYWGPGTQVTVSS	low polyreactivity
QVQLVESGGGLVQAGGSLRLSCAASGSSFDIYVMGWYRQAPGKERELLAAISRVGNTSYADSVKGRFTISRDNGKNTVYLQMNKHETGIYRGHYCGAGLVGAGYITYNDYDYWGQGTQVSVSS	low polyreactivity
QVHLVESGGGLVQAGGSLRLSCAASGFIFSGYALGWKRQAPGKERELVAAITSSGDGTYYADSVKGRFTISRDNAKNTVYLQMNSLTPEDTAVYYCNAGRARYFWRTDRFDYWGQGTQVTVSS	high polyreactivity

* * *

experiment: yeast display, Sf9 membrane polyspecificity reagent, FACS + sequencing; frameworks hold sequencing errors

Residues	polyreactivity (PSR sort gate)
QVQLVESGGGLVQAGGSLRLSCAASGSTFPYNAMGWYRQAPGKEWELVAAISQSGGSTYYADSVKGRFTISRDNAKNTVYLQMNSLKPEDTAVYYCATDQSLLAHYDYWGQGTQVTVSS	low polyreactivity
QVQLVESGGGLVQAGGSLRLSCAASGRTFGFNAMGWSRPAPGKERELVAVITRGGSTYADSVKGRFTISRDNAKNTVYLQMNSLKPEDTAVYYCAAYRYGFKTWMDYWGQGTQVTVSS	high polyreactivity
QVHLVESGGRLVQAGVSLRLSCAASGRIFSNYAMGWYIQAPGKERELVAAISRGGGRTFYADSVKGRFTISRDNAKNTVYLQMNSLKPEDTAVYYCATRSYYVKGDYWGQGTQVTVSS	high polyreactivity
QVQLVESGGGLVQAGGSLRLSCAASGYILYANTMGWYRQAPGKERELVAAISGGGSTNYADSVKGRFTISRDNAKNTVYLQMNSLKPEDTAVYYCAVKTNQAGYDYWGQGTQVTVSS	low polyreactivity

* * *

assay: yeast display, Sf9 membrane polyspecificity reagent, FACS + sequencing; frameworks hold sequencing errors

Residues	polyreactivity (PSR sort gate)
QVHLVESGGGLVQAGGSLRLSCAASGSIFGPYVMGWYRQAPGKEREFVAAIRGSGGSTYYADTVKGRFTISRDNAKNTVYLQMTSLKPEDTAVYYCNASLKYTLYYYWGQGTQVTVSS	high polyreactivity
QVQLVETGGGLVQAGGSLRLSCAAYGRIFAIYAMGWYRQAPGKDRELVAAISRSGGSTSYADSVKGRFTISRDNAKNTVYLQMNSLKPEDTAVYYCARRITYYQLSRQRYDYWGQGTQVTVSS	high polyreactivity
QVQHEESGGGLVQAGGSLRLSCAASGYTFSFYAMGWSRQAPGKERELVAAISSSDGTTYYADSVKGRFTISRDNAKNTVYLQMNSLKPQDTAVYYCNTRYVRQVVGTYTLKTRYYWGQGTQVTVSS	high polyreactivity
QVQLVESGGGLVQAGGSLRLSCAASGSTFPHNPMGCYRQAPGKERELVAAISSIGVRTYYADSVKGRFTISRDNAKNTVYLQMNSLKPEDTAVYYCAARQSQGDRYYYWGHGTQVTVSS	high polyreactivity
QVQLVESRGALVQAGASLRLSCAASALTFVKNVMGWYRQAPGKERELVAAISSGGSTYADSVKGRFTISRDNAKNTVYLQMNSLKPEDTAVYYCNADFRARNYHYYPRRFKYYYWGQGTQVTVSS	high polyreactivity
QVQLVESGGGLVQAGGSLRLSCAASGGTFKTNAMGWYRQAPGTERELVAAIRYSGGDTYYADSVKGRFTISRDNAKNTVYLLLKSLKPEDTAVYYCAADFTLLYDYWGQGTQVTVSS	low polyreactivity
QVQLVESGGGLVQAGGSLRLSCAASGSTFSGNAMGWDRQAPGKESELVAAINSVRTYYADSVKGRFTISRDNAKNTVYLQMNSLKQEDTAVYYCNAEGYVSLSQYGVRRHSDYWGQGTQVNVSS	high polyreactivity
QVQLVESGGGLVQAGGSLRLSCAASGYAMGWYRQAPGKERELVAAITRRGGSTYYADSVKGRFTISRDNAKNTVYLQMNSLKPEDTAVYYCAADNPSYNLWYGYWGQGTQVTVSS	low polyreactivity
QVQLVESGGGLVQAGGSLRLSCAASGSIFSENTMGWYRPAPGKKRELVADITSGGSTNYADSVKGRFTISRDNAKKTVYLQMNSLKPEDTAVYYCAADYNGEYDYWGLGTQVTVSS	low polyreactivity
QVQLVESGGGLVQAGGSLRLSCAASGSIFQFNAMGWYIQAPGKERELVAAISRRTGSTYYADSVKGRFTISRDNAKNTVYLQMNSLKPEDTAVYYCAAKGYGSAPTYRHNYWGQGTQVTISS	high polyreactivity
QVQLVESGGGLVQAGGSLRLSCAASGGIFIGYAMGWYRQAPGKERELVARIRSSGGTTYYADSVKGRFTISRDNAKNTVYLQMNSLKPEDTAVYYCAKRTSSSWAYGPYYYWGQGTQVTVSS	high polyreactivity
QVQLVESGGGLVQAGGSLRLSCAASGSIFRLNVMGWYRQAPGKERELVAVITGSGTRTNYADSVKGRFTISRDNAKNTVYLQMNSLKPEDTAVYYCNRVTTPTVTYGYGKMDYWGHGTQVTVSS	high polyreactivity
QVQLVESGGGLVQAGGSLRLSCAASGSTFPRYAMGWYRQAPGKERELVATITSGGSTYYADSVKGCFTISRDNAKNTFYLQMNSLKPEDTAVYYCAAGYRWTYTSGTYIRYNYWGQVTQVTVSS	high polyreactivity

* * *

assay: yeast display, Sf9 membrane polyspecificity reagent, FACS + sequencing; frameworks hold sequencing errors

Residues	polyreactivity (PSR sort gate)
QVQLVESGGGLVQAGGSLRLSCAASGSIFYVNAMGWYRQAPGKERELVAAISVRGGRTYYADSVKGRFTISRDNAKNTVYLQMNSLKPEDTAVYYCAAKSVYKFGDDYWGQGTQVTVSS	high polyreactivity
QVQLVESGGGLVQAGGSLRLSSAASGLTIAPYARGWYRPAPGKVWELVAAITQRGSSTYYADSVKGRFTISRDNAKNTVYLQMNSLKRVDTAVYYCAARYRARYYWGQGTQVTVSS	high polyreactivity
QVHLVESGGGLVQAGGSLRLSCAASGRIFWLYAMGWYRQAPGKERELVAAISSGGSTSYADSVKGRFTISRDNAKNTVYLQMNSLKPEDTAVYYCNATLLFPLLYGPESGEFDYWGQGTQVTVSS	low polyreactivity
QVQLVESGGGLVQAGGSLRLSCAASGRTFKYYAMGWYRQAPGKERELVAAISWSGSSTNYADSVKGRFTISRDNAKNTVYLQMNSLKPEDTAVYYCAAATYRQFTGTYDYWGQGTQVTVSS	high polyreactivity
QVQLVESGGGLVQAGGSLRLSCAASGSILRLYVMGWYRQAPGKERELVADISDRGGSTYYADSVKGRFTISRDNAKNTVYLQLNSLKPEDTAVYYCDKDSETAGATYTEYDYWGQGTQVTVSS	low polyreactivity
QVQLVESGGGLVQAGGSLRLSCAASGRTFRLNAMGWYRQAPGKERELVAAITSSGGSTYYADSVKGRFTISRDNAKNTVYLQLNSLKPEDTAVYYCARRQGYGVRSIRWGDYWGQGTQVTVSS	high polyreactivity

Where do these numbers come from? They come from the nanobody polyreactivity screen of Harvey et al. (2022).
